- Test system: Acinetobacter baumannii
- measurement-notes: Antibacterial activity against Acinetobacter baumannii ATCC 19606 (CO-ADD:GN_034); MIC in CAMBH media using NBS plates, by Resazurin F(560/590)
- Assay type: functional
- conditions: Concentration 20 uM, ASSAY_TEST Inhibition of Bacterial Growth, detection method Resazurin, Fluorescence (ex560/em590), MEDIA CAMHB, plate type 384well, CORNING #3640, time 18 hr
assay-endpoint: Inhibition (%)
Write the number in % without appending the unit.

Field: example entries. Status: answers known.
* O=C1c2cccc(Oc3ccccc3)c2C(=O)c2cccc(Oc3ccccc3)c21 | 6.18
* CCn1c2ccccc2nc2cc3c(cc21)c(Cl)c(=O)c1ccccc13 | 12.51
* CC1(C)CC(Nc2ccc(Nc3ccccc3)cc2)CC(C)(C)N1 | 9.93
* CCC(C)(C)c1ccc(Oc2cccc(C(=O)O)c2)cc1 | 14.6
* C(COC1CC2CC1C1C2CC2OC21)OC1CC2CC1C1C2CC2OC21 (stereo unspecified) | 15

Please examine the following record next.
# input compound: `NC(=O)c1cc(C(N)=O)nc(Cl)n1` ; wanted: its Inhibition
0.04
